Would you mind telling me the reported Chip Fluorescence (mean) of each entry?
Tested on: GST-tagged Cn
assay details: PEPperPRINT peptide microarray binding assay with GST-tagged Cn
stated conditions: GST-tagged Cn, mean over the chip spots listed under Location on chip
Answers are plain numbers.

Please review the entries below; each comes with its answer.
sequence data	Chip Fluorescence (mean)
GTESTPSVVVHVCDSD [SeqRCN1_Desmodus_rotundus]	0.04317
TFWTNPQYRITLTDVD [SeqRBMlowT_7188]	-1.3023
PVHTIHRVSLQDAGKY [SeqCEACAM5_Aedes_aegypti]	-0.7144

For each listed entry, give its Chip Fluorescence (mean).
1. RNPGQALLTLEGHSAS [SeqRBMlowT_5868]
2. LVWDNGSYTGRTIKAP [Seqshuffled_9818]
3. AQSSQPPISTKYDARG [Seqshuffled_9482]
4. TFWTNPQYVITVTDPD [SeqRBMlowT_3207]

**A:**
[-0.2838, -0.1421, -0.6535, -0.6772]

For each listed entry, give its Chip Fluorescence (mean).
1. LTWTSNDMKLHLSGVS [Seqshuffled_9827]
2. ADEANPEITVTPAELP [SeqRBMlowT_396]

**A:**
-0.8344
-0.7137

For each listed entry, give its Chip Fluorescence (mean).
1. AQMAPPAINIDFAPTN [SeqRBMlowT_7215]
2. MTPAAPIVRLHIPSSV [SeqRBM_8521]
3. TFWTNPQYKIKLEEPD [SeqRBMlowT_46]
4. FSFMCPDSNTNHDQVS [SeqRBM_6801]

**A:**
1. -0.8945
2. -0.03556
3. -0.7275
4. -0.7887

For each listed entry, give its Chip Fluorescence (mean).
1. RQPGTFLLTLRGHKKQ [SeqRBMlowT_6149]
2. PENKFQPFAIKLCVKG [Seqshuffled_5021]
3. DSHTVDPIPINPHSAV [SeqRBM_5538]
4. SSQGSSRPARSPERTV [SeqRBM_2387]
5. SFWANPQFIVSLEEPD [SeqRBMlowT_610]
6. LKDEFSDVRLNIISNL [SeqRBMlowT_1878]
7. TFWTNPQFKVKLEDPD [SeqRBMlowT_4293]
8. GTDTTPSVVVHVCEDD [SeqRBMlowT_1211]

**A:**
1. 0.123
2. -0.6992
3. -0.655
4. -0.1808
5. -0.5491
6. 0.04327
7. -0.6386
8. -0.2753

Attribution: paper PMC9928118
